measured.on: T1, hANGPTL4(26-148)-mFc (Homo sapiens, UniProt Q9BY76)
T1 construct: amino acid residues 26-148 of human ANGPTL4 fused in-line to mouse IgG2a (hANGPTL4-mFc)
assay.text: BIACORE, full mAb or Fab over anti-mFc captured hANGPTL4(26-148)-mFc
Assay type: binding
condition: pH 5.75, 25° C.
quantity: ka (M⁻¹ s⁻¹)
Give bare numbers, in M⁻¹ s⁻¹.

// recorded ka for H1H284P Fab: Fab fragment of H1H284P prepared by papain digestion (antibody, V domains shown) VH: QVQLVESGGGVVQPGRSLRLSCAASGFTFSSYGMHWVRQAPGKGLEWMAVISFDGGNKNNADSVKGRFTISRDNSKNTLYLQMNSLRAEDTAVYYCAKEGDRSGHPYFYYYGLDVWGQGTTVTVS VL: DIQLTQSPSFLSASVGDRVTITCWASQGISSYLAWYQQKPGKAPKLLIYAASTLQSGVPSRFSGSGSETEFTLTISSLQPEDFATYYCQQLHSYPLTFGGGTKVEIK : 472000

These entries and their values trace back to patent US9120851B2.
